Taken from ChEMBL document CHEMBL1201862.

GI50 reference
# Test system: SW-620
# Test name: NCI tumour cell line growth inhibition, 48 h
Calls of active or inactive are those of the source. Rule as the data show it: active = GI50 up to about 1.1 µM and inactive = higher.

{"columns": ["Compound", "GI50"],
 "data": [
  ["COC(=O)c1cc2c(cc1C(=O)OC)[C@@]1(C)CCCC(C)(C)C1CC2 (stereo not given in full)", "18.7 µM (inactive)"],
  ["CCOC(=O)c1c(N2CCCC2)[nH]c(=O)c(C(c2ccc(OC)cc2)c2c(O)c(C(=O)OCC)c(N3CCCC3)[nH]c2=O)c1O", "> 100 µM (inactive)"],
  ["CS/C(=N/S(=O)(=O)c1ccc(Cl)cc1)NCCCN/C(=N\\S(=O)(=O)c1ccc(Cl)cc1)SC", "45.6 µM (inactive)"],
  ["[O-][n+]1onc(-c2ccccc2)c1-c1no[n+]([O-])c1-c1c(-c2ccccc2)no[n+]1[O-]", "4.1 µM (inactive)"],
  ["O=C(c1ccccc1Br)C(F)(F)F", "> 100 µM (inactive)"]
]}
